- Species: Rattus norvegicus
- Assay Details: Open TG-GATES - Regimen: Single
- Format: toxicity, organism-based, Sprague-Dawley
- Set-up: regimen Single, gender Male, age 6 weeks
- Test Context: in vivo, po, 0 mg/kg, 24 h, tissue Blood, route gavage, dose level Control
Assay Readout: Mono (%)

[[record]]
molecule = "CN(C)CCC(c1ccc(Cl)cc1)c1ccccn1 (centres undefined)"
readout_number = 3.6

[[record]]
molecule = "CN/C(=N/CCSCc1nc[nH]c1C)NC#N"
readout_number = 3

[[record]]
molecule = "CCCc1cc(=O)[nH]c(=S)[nH]1"
readout_number = 9

[[record]]
molecule = "CN1C(=O)CCS(=O)(=O)C1c1ccc(Cl)cc1 (centres undefined)"
readout_number = 2.8

[[record]]
molecule = "CCOc1ccc(NC(C)=O)cc1"
readout_number = 2.2

[[record]]
molecule = "COC(=O)C1=C(C)NC(C)=C(C(=O)OC)C1c1ccccc1[N+](=O)[O-]"
readout_number = 3

[[record]]
molecule = "Brc1ccccc1"
readout_number = 3.4

[[record]]
molecule = "CS(=O)(=O)O.Cc1ccc(NC(=O)c2ccc(CN3CCN(C)CC3)cc2)cc1Nc1nccc(-c2cccnc2)n1 [IMATINIB MESYLATE]"
readout_number = 2.4

[[record]]
molecule = "NC1=NC(=O)C(c2ccccc2)O1 (centres undefined)"
readout_number = 3.8

[[record]]
molecule = "Cc1nnc2n1-c1ccc(Cl)cc1C(c1ccccc1Cl)=NC2"
readout_number = 3

[[record]]
molecule = "CNC(=C[N+](=O)[O-])NCCSCc1ccc(CN(C)C)o1"
readout_number = 2.2

[[record]]
molecule = "Nc1c2c(nc3ccccc13)CCCC2"
readout_number = 3

[[record]]
molecule = "CC(C)NNC(=O)c1ccncc1"
readout_number = 3

[[record]]
molecule = "O=C(OC[C@H]1O[C@@H](OC(=O)c2cc(O)c(O)c(OC(=O)c3cc(O)c(O)c(O)c3)c2)[C@H](OC(=O)c2cc(O)c(O)c(OC(=O)c3cc(O)c(O)c(O)c3)c2)[C@@H](OC(=O)c2cc(O)c(O)c(OC(=O)c3cc(O)c(O)c(O)c3)c2)[C@@H]1OC(=O)c1cc(O)c(O)c(OC(=O)c2cc(O)c(O)c(O)c2)c1)c1cc(O)c(O)c(OC(=O)c2cc(O)c(O)c(O)c2)c1"
readout_number = 6

